Attribution: ChEMBL document CHEMBL4177695

# Tested on: MG-63
# procedure summary: Anti-proliferative activity against human MG63 cells after 72 hrs by MTT assay
# Format: functional, cell-based
# condition: MG-63, 72 h
attribute measured: EC50

Would you please look over these solved cases?
COc1ccc(-c2c(C)c3ccc(OCCN4CCN(CCO)CC4)cc3oc2=O)cc1OC	14.5 µM
O=c1c(-c2ccc(Br)cc2)coc2cc(OCCN3CCN(CCO)CC3)ccc12	11 µM

We next turn to a different molecule, shown below.
Incoming: Can you look up EC50 on MG-63 for "O=C(O)C(Cl)Cl" ?
Outgoing: 15400 µM

###

# assay system: [Pyruvate dehydrogenase (acetyl-transferring)] kinase isozyme 2, mitochondrial (Homo sapiens)
# procedure summary: Inhibition of recombinant human GST-tagged PDK2 expressed in baculovirus infected Sf9 cells using PDHA1 as substrate measured after 1 hr by ELISA
attribute measured: IC50 (µM)
Write the value in µM as a bare number.

Would you please look over these solved cases?
O=c1c(-c2ccc(Br)cc2)coc2cc(OCCN3CCN(CCO)CC3)ccc12	10.9
COc1ccc(-c2c(C)c3ccc(OCCN4CCN(CCO)CC4)cc3oc2=O)cc1OC	5.2

We next turn to a different compound, shown below.
Incoming: What value of IC50 has been recorded for this entry: O=C(O)C(Cl)Cl [DICHLOROACETIC ACID]
Outgoing: 9000

###

# assay system: [Pyruvate dehydrogenase (acetyl-transferring)] kinase isozyme 1, mitochondrial (Homo sapiens)
# Sequence (Q15118 whole entry): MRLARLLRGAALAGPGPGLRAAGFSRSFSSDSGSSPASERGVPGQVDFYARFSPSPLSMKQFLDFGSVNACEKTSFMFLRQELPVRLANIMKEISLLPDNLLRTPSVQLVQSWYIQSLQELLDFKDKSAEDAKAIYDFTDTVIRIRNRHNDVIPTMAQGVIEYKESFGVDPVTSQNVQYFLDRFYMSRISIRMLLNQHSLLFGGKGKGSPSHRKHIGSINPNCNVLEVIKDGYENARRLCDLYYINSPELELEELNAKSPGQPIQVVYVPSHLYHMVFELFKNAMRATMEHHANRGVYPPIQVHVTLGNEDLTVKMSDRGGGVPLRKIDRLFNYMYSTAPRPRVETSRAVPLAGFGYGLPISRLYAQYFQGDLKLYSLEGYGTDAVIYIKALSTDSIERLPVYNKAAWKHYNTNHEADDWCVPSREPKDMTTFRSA
# procedure summary: Inhibition of recombinant human GST-tagged PDK1 expressed in baculovirus infected Sf9 cells using PDHA1 as substrate measured after 1 hr by ELISA
attribute measured: pIC50
Units for pIC50: none; it is -log10 of a concentration expressed in mol/L.

O=c1c(-c2ccc(Br)cc2)coc2cc(OCCN3CCN(CCO)CC3)ccc12	5.50

Incoming: What value of pIC50 has been recorded for this entry: "COc1ccc(-c2c(C)c3ccc(OCCN4CCN(CCO)CC4)cc3oc2=O)cc1OC"
Outgoing: 5.53
